# SYSTEM: Full-length PRMT5 enzyme (NCBI Reference sequence NP_006100.2) co-expressed with His6-MEP50 (Homo sapiens (Human))
# Sequence (O14744 whole entry): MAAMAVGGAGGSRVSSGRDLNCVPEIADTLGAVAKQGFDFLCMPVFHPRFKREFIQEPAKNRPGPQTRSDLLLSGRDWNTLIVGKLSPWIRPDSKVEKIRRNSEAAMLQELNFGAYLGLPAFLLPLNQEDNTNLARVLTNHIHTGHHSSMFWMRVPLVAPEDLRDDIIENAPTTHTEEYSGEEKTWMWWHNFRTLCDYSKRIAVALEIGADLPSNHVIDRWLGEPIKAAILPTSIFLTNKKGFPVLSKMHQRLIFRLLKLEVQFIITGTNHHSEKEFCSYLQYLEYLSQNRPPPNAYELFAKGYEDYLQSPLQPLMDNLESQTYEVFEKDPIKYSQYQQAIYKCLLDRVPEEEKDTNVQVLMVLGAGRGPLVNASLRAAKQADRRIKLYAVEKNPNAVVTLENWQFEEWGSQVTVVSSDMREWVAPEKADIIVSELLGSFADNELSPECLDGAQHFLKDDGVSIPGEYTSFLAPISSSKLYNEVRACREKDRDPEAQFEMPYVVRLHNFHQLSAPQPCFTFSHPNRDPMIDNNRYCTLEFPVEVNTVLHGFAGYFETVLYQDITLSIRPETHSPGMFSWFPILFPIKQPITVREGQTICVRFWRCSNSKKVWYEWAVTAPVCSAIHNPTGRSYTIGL
# Sequence (Q9BQA1 whole entry partner): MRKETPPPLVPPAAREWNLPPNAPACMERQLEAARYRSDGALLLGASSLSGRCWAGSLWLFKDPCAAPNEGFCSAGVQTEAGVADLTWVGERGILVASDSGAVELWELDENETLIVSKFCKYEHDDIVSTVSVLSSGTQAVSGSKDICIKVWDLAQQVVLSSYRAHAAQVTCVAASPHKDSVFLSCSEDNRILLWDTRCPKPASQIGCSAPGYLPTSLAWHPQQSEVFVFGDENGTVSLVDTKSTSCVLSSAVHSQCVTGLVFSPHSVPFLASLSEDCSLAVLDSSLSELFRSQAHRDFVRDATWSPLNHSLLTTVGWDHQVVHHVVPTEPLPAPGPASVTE
# EXPERIMENT DESCRIPTION: Revised PRMT5 Biochemical Assay
# MEASUREMENT SETUP: 1 μM peptide substrate, 1 μM S-Adenosyl methionine, 4 hours at 37 degree Celsius, Transcreener EPIGEN fluorescence polarisation
Counter-ions that a name gives are not always drawn.
TEST READOUT: IC50 (nM)
// units = nM; emit number, no label

Field: example entries. Status: answers known.
compound="CCOc1cc(C(=O)N2C3CCC2COC3)c(F)cc1C(=O)NC[C@@H](O)[C@@H]1Cc2ccccc2CN1 [Example 69]" observed_measurement=1300
compound="O=C(NC[C@@H](O)[C@@H]1Cc2ccccc2CN1)c1ccc(C(=O)N2C3CCC2COC3)cc1C(F)F [Example 106]" observed_measurement=212
compound="O=C(NC[C@@H](O)[C@@H]1Cc2ccccc2CN1)c1ccc2nc(C(F)(F)F)[nH]c2c1 [Example 84, dihydrochloride]" observed_measurement=124
compound="O=C(NC[C@@H](O)[C@@H]1Cc2ccccc2CN1)c1cccnc1 [Example 78, dihydrochloride]" observed_measurement=1700
compound="CC(=O)N1CCC(Oc2cc(C(=O)NC[C@@H](O)[C@@H]3Cc4ccccc4CN3)cnn2)CC1 [Example 116, dihydrochloride]" observed_measurement=1110

Memo: O=C(NC[C@@H](O)[C@@H]1Cc2ccccc2CN1)c1ccc(C(=O)N2CCCC2)cc1 [Example 90] , reported IC50: 947

Memo: COC(=O)N1[C@@H]2CC[C@H]1C[C@@H](Oc1cc(C(=O)NC[C@@H](O)[C@@H]3Cc4ccccc4CN3)ccn1)C2 [Example 105] , reported IC50: 38

Memo: COC(=O)N1CCC(Oc2cc(C(=O)NC[C@@H](O)[C@@H]3Cc4ccccc4CN3)ncn2)CC1 [Example 76, dihydrochloride] , reported IC50: 262

Memo: CCOc1cc(-c2nnc(C)o2)ccc1C(=O)NC[C@@H](O)[C@@H]1Cc2ccccc2CN1 [Example 89] , reported IC50: 203

Memo: O=C(NC[C@@H](O)[C@@H]1Cc2ccccc2CN1)c1ccc(OCC(F)(F)F)nc1 [Example 57] , reported IC50: 594

Memo: O=C(NC[C@@H](O)[C@@H]1Cc2ccccc2CN1)c1ccc(C(=O)N2CCCOCC2)cc1 [Example 40] , reported IC50: 705

Memo: O=C(NCC1CCOCC1)c1ccc(C(=O)NC[C@@H](O)[C@@H]2Cc3ccccc3CN2)cc1 [Example 31] , reported IC50: 204

Memo: CCOc1c(C(=O)NC[C@@H](O)[C@@H]2Cc3ccccc3CN2)ccc(C(=O)N2CCOCC2)c1C [Example 80, hydrochloride] , reported IC50: 161

Memo: CCOc1ccccc1C(=O)NC[C@@H](O)[C@@H]1Cc2ccccc2CN1 [Example 8] , reported IC50: 16500

Memo: COC(=O)N1CCC(Oc2ccc(C(=O)NC[C@@H](O)[C@@H]3Cc4ccccc4CN3)cn2)CC1 [Example 100] , reported IC50: 66

----------
# System: symmetrical dimethylation of arginine (Di-Methyl Histone H4R3) in cell line TE11
# EXPERIMENT DESCRIPTION: PRMT5 Biomarker Assay (symmetrical dimethylation of arginine, Di-Methyl Histone H4R3 ELISA)
# Assay type: cell-based
# MEASUREMENT SETUP: Homo sapiens, TE-11; TE11 cells, 72 h incubation, EpiQuik ELISA, corrected for total protein
TEST READOUT: IC50 (nM)
// units = nM; emit number, no label

Memo: O=C(NCC(O)CC1Cc2ccccc2CN1)c1ccc(C(=O)N2CCOCC2)cc1 (centres unmarked) , reported IC50: 956

Memo: O=C(NCC(O)C1Cc2ccccc2CN1)c1ccc(C(=O)N2CCOCC2)cc1 (centres unmarked) , reported IC50: 7.2
